value-type: logP

1. CCCCOc1ccc2oc3cc(C(=O)O)ccc3c(=O)c2c1; 5
2. CCCc1ccc2oc3cc(C(=O)O)ccc3c(=O)c2c1; 4.59
3. O=C(O)c1ccc2c(=O)c3cc(OCCO)ccc3oc2c1; 2.46
4. N#Cc1ccc2oc3ccc(-c4nnn[nH]4)cc3c(=O)c2c1; 2.52
5. O=c1c2ccc(-c3nnn[nH]3)cc2oc2ccc([N+](=O)[O-])cc12; 2.83
6. Nc1ccc2oc3cc(C(=O)O)ccc3c(=O)c2c1; 2.3
7. CCSc1ccc2oc3cc(-c4nnn[nH]4)ccc3c(=O)c2c1; 4.06
8. CCCCOc1ccc2oc3cc(-c4nnn[nH]4)ccc3c(=O)c2c1; 4.69
9. O=C(O)c1ccc2c(=O)c3cc([N+](=O)[O-])ccc3oc2c1; 3.12
10. Nc1ccc2oc3cc(-c4nnn[nH]4)ccc3c(=O)c2c1; 2.18
11. O=C(O)c1ccc2c(=O)c3cc(OCCOCCO)ccc3oc2c1; 2.62
12. O=c1c2ccc(-c3nnn[nH]3)cc2oc2ccc(OCCO)cc12; 2.31
13. CCSc1ccc2oc3cc(C(=O)O)ccc3c(=O)c2c1; 4.36
14. CC(O)COc1ccc2oc3cc(C(=O)O)ccc3c(=O)c2c1 (configuration not stated); 2.87
15. COc1ccc2oc3cc(-c4nnn[nH]4)ccc3c(=O)c2c1; 3.15
16. COCc1ccc2oc3cc(C(=O)O)ccc3c(=O)c2c1; 3.12
17. CCCC(=O)OCCOc1ccc2oc3cc(C(=O)O)ccc3c(=O)c2c1; 4
18. O=c1c2ccccc2oc2cc(-c3nn[nH]n3)ccc12; 2.86
19. CCOc1ccc2oc3cc(-c4nn[nH]n4)ccc3c(=O)c2c1; 3.67
20. CCOc1ccc2oc3cc(C(=O)O)ccc3c(=O)c2c1; 3.99
21. CCCC(=O)OCCOc1ccc2oc3cc(-c4nnn[nH]4)ccc3c(=O)c2c1; 3.73
22. COc1ccc2oc3cc(C(=O)O)ccc3c(=O)c2c1; 3.37
